target: Human C3 (Complement tech cat #A113c) (human, UniProt P01024 23-1663); assay: cell-based or functional assay
Sequence (P01024 23-1663 limits assumed): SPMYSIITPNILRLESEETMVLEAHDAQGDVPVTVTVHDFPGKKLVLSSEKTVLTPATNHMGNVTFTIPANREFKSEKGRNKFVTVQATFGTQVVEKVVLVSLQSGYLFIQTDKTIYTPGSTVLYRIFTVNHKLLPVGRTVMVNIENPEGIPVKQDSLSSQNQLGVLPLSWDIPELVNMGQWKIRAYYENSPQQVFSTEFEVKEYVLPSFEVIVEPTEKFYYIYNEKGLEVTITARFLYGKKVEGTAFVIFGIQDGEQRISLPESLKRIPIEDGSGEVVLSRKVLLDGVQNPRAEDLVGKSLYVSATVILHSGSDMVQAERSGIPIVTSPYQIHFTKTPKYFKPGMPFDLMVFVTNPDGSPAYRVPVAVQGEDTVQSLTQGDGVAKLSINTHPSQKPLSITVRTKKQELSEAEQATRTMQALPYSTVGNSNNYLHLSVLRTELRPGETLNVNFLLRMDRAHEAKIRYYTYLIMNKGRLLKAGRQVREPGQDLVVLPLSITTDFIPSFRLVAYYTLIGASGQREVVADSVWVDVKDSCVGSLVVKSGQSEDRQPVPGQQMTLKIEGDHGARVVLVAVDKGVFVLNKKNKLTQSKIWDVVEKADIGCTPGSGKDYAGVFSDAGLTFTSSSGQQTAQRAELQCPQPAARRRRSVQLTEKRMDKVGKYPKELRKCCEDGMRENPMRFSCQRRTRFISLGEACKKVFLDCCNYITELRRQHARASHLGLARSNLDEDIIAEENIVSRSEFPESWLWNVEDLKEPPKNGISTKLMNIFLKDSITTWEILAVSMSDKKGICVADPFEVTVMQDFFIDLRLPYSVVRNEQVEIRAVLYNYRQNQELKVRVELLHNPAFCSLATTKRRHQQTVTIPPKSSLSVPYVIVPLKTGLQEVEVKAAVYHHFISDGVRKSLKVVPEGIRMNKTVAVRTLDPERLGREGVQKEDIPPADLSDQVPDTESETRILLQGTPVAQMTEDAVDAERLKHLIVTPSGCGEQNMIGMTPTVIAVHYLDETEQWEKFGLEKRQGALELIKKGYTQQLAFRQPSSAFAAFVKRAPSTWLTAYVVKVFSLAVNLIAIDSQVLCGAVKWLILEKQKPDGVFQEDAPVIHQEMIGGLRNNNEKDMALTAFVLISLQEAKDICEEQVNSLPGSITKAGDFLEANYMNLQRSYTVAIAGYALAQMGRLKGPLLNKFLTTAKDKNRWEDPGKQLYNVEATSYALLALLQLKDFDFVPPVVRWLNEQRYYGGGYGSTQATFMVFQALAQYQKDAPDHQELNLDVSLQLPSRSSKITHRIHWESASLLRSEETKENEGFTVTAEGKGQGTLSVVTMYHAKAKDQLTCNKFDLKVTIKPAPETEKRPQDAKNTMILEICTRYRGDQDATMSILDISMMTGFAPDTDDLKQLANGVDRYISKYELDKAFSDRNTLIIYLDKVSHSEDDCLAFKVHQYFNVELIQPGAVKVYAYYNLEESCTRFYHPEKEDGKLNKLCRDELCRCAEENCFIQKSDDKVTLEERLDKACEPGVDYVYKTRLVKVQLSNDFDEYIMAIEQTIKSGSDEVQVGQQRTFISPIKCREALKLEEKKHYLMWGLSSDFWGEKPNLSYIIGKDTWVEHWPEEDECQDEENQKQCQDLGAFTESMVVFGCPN
Positions of bridges follow the written chain, without caps; N, C: chain ends.
Answer each item with its documented CP hemolysis IC50.
Expressed in nM, but write only the number.

The binder listed as Ac-ICIWQDWGSHRCT-NH2 (disulfide 2-12; SMILES CC[C@H](C)[C@H](NC(C)=O)C(=O)N[C@H]1CSSC[C@@H](C(=O)N[C@H](C(N)=O)[C@@H](C)O)NC(=O)[C@H](CCCNC(=N)N)NC(=O)[C@H](Cc2c[nH]cn2)NC(=O)[C@H](CO)NC(=O)CNC(=O)[C@H](Cc2c[nH]c3ccccc23)NC(=O)[C@H](CC(=O)O)NC(=O)[C@H](CCC(N)=O)NC(=O)[C@H](Cc2c[nH]c3ccccc23)NC(=O)[C@H]([C@@H](C)CC)NC1=O) [Compound 6] has a reported CP hemolysis IC50 of 140

The binder listed as Ac-ICVWQDWGEHRCTGAES-NH2 (disulfide 2-12; SMILES CC[C@H](C)[C@H](NC(C)=O)C(=O)N[C@H]1CSSC[C@@H](C(=O)N[C@H](C(=O)NCC(=O)N[C@@H](C)C(=O)N[C@@H](CCC(=O)O)C(=O)N[C@@H](CO)C(N)=O)[C@@H](C)O)NC(=O)[C@H](CCCNC(=N)N)NC(=O)[C@H](Cc2c[nH]cn2)NC(=O)[C@H](CCC(=O)O)NC(=O)CNC(=O)[C@H](Cc2c[nH]c3ccccc23)NC(=O)[C@H](CC(=O)O)NC(=O)[C@H](CCC(N)=O)NC(=O)[C@H](Cc2c[nH]c3ccccc23)NC(=O)[C@H](C(C)C)NC1=O) [Compound D] has a reported CP hemolysis IC50 of 210

The binder listed as Ac-ICVWQDWGEHRCS-NH2 (disulfide 2-12; SMILES CC[C@H](C)[C@H](NC(C)=O)C(=O)N[C@H]1CSSC[C@@H](C(=O)N[C@@H](CO)C(N)=O)NC(=O)[C@H](CCCNC(=N)N)NC(=O)[C@H](Cc2c[nH]cn2)NC(=O)[C@H](CCC(=O)O)NC(=O)CNC(=O)[C@H](Cc2c[nH]c3ccccc23)NC(=O)[C@H](CC(=O)O)NC(=O)[C@H](CCC(N)=O)NC(=O)[C@H](Cc2c[nH]c3ccccc23)NC(=O)[C@H](C(C)C)NC1=O) [Compound G] has a reported CP hemolysis IC50 of 180
